The measurements presented in this section are drawn from paper PMC12136037.

# target_under_test: ~100 representative kinases (Homo sapiens, UniProt Q16539)
# Construct: Recombinant protein kinase domains with a concentration of 2 μM
# Sequence (Q16539 whole entry, the tested form may be a part): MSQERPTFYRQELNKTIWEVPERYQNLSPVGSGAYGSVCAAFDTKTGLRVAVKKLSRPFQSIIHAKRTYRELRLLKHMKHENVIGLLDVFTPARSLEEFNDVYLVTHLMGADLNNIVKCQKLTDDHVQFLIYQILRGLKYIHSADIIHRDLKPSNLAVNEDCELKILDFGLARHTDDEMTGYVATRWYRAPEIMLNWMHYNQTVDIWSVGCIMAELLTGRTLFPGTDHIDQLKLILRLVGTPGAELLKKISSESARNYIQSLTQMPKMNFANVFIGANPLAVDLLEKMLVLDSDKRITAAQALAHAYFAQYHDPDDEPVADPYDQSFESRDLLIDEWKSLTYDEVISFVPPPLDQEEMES
# assay_overview: DSF 100 kinase selectivity screen;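 also: compound tested at 20 µM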
# Type: binding
# study_conditions: protein MAPK14; average of three replicates
# Protocol: Recombinant protein kinase domains with a concentration of 2 μM were mixed with a 20 μM compound solution in dimethyl sulfoxide (DMSO), 20 mM Hepes (pH 7.5), and 500 mM NaCl. SYPRO Orange (5000×, Invitrogen) was added as a fluorescence probe (1μl/ml). Subsequently, temperature-dependent protein unfolding profiles were measured using the QuantStudio 5 realtime PCR machine (Thermo Fisher Scientific, Waltham, MA, USA). […] The temperature was raised with a step rate of 3°C/min. […]
Heads up, the class ranges for dTm are category 1 (below 0.5 K), category 2 (0.5 K to below 2 K), category 3 (2 K or more)

compound=O=C(Nc1ccc(Cl)cc1)C1(C(=O)Nc2cccc(-c3c[nH]c4ncnc(N5CCOCC5)c34)c2)CC1 cat="category 2"
compound=CCSc1nc(NC)c2c(-c3cccc(NC(=O)Nc4cc(C(C)(C)C)nn4-c4ccc(C)cc4)c3)c[nH]c2n1 cat="category 3"
compound=COc1cc(NC(=O)C2(C(=O)Nc3cccc(-c4c[nH]c5ncnc(N6CCOCC6)c45)c3)CC2)ccc1F cat="category 2"
compound=O=C(Nc1ccc(F)cc1)C1(C(=O)Nc2cccc(-c3c[nH]c4ncnc(N5CCOCC5)c34)c2)CC1 cat="category 1"
compound=COc1cc(S(C)(=O)=O)ccc1Nc1nc(N(C)C)c2c(Cl)c[nH]c2n1 cat="category 1"
compound=Cc1ccc(-n2nc(C(C)(C)C)cc2NC(=O)Nc2cccc(-c3c[nH]c4nc(Cl)nc(N5CCOCC5)c34)c2)cc1 cat="category 3"
compound=Cc1ccc(NC(=O)C2(C(=O)Nc3cccc(-c4c[nH]c5ncnc(N6CCOCC6)c45)c3)CC2)cc1 cat="category 1"
compound=C[C@@H]1CN(c2cc(-c3n[nH]c4ccc(OC5(C)CC5)cc34)ncn2)C[C@H](C)O1 cat="category 1"
compound="CNC(=O)c1cc(Oc2ccc(NC(=O)Nc3cc(C(C)(C)C)nn3-c3ccc4ncccc4c3)c(F)c2)ccn1 [Rebastinib, reference compound]" cat="category 3"
compound=O=C(Nc1cccc(-c2c[nH]c3ncnc(N4CCOCC4)c23)c1)C1(C(=O)Nc2ccc(F)c(Br)c2)CC1 cat="category 3"
compound=COc1ccc(NC(=O)C2(C(=O)Nc3cccc(-c4c[nH]c5ncnc(N6CCOCC6)c45)c3)CC2)cc1 cat="category 1"
compound="Cc1ccc(C(=O)Nc2ccc(CN3CCN(C)CC3)c(C(F)(F)F)c2)cc1C#Cc1cnc2cccnn12 [Ponatinib, reference compound]" cat="category 3"
compound=CC(=O)N1CCN(c2nc(Cl)nc3[nH]cc(-c4cccc(NC(=O)Nc5cc(C(C)(C)C)nn5-c5ccc(C)cc5)c4)c23)CC1 cat="category 3"
compound=CCNc1nc(Nc2cc(F)c(C(=O)N3CCOCC3)cc2OC)ncc1C(F)(F)F cat="category 1"
compound=O=C(Nc1cccc(-c2c[nH]c3ncnc(N4CCOCC4)c23)c1)C1(C(=O)Nc2ccc(F)c(Cl)c2)CC1 cat="category 2"
compound=CC(C)(C)c1cc(NC(=O)Nc2cccc(-c3c[nH]c4ncnc(N5CCOCC5)c34)c2)n(-c2ccc3ncccc3c2)n1 cat="category 3"
compound=Cc1cc(NC(=O)C2(C(=O)Nc3ccc(F)cc3)CC2)cc(-c2c[nH]c3ncnc(N4CCOCC4)c23)c1 cat="category 2"
compound=O=C(Nc1cccc(-c2c[nH]c3ncnc(N4CCOCC4)c23)c1)c1cccn(-c2ccc(F)cc2)c1=O cat="category 2"
compound=Cc1ccc(C(=O)Nc2ccc(CN3CCN(C)CC3)c(C(F)(F)F)c2)cc1C#Cc1c[nH]c2ncnc(N3CCOCC3)c12 cat="category 3"
compound=COc1cc(C(=O)N2CCOCC2)c(F)cc1Nc1nc(N(C)C)c2c(Cl)c[nH]c2n1 cat="category 1"
compound=Cc1cc(F)ccc1NC(=O)C1(C(=O)Nc2cccc(-c3c[nH]c4ncnc(N5CCOCC5)c34)c2)CC1 cat="category 1"
compound=O=C(Nc1cccc(-c2c[nH]c3ncnc(N4CCOCC4)c23)c1)C1(C(=O)Nc2ccc(F)c(F)c2)CC1 cat="category 2"
compound=O=C(Nc1cccc(-c2c[nH]c3ncnc(N4CCOCC4)c23)c1)C1(C(=O)Nc2cccc3c2CCC3)CC1 cat="category 2"
